- Experimental system: mu opioid receptor (Homo sapiens)
- Sequence (P35372 whole entry): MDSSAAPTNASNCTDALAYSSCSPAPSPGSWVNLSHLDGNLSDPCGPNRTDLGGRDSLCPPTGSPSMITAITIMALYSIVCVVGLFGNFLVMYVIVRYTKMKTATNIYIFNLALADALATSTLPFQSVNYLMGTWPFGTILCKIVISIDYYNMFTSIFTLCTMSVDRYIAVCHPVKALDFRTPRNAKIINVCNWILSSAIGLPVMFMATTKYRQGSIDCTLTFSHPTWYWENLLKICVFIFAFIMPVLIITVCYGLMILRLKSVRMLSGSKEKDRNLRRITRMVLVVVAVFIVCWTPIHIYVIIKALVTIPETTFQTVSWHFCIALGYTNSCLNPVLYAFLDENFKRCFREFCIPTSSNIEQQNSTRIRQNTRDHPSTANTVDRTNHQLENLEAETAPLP
- Experimental protocol: Filtration binding assay: mu opioid receptor
Recorded endpoint: IC50

* O=C1N(C[C@@H](O)CN2CCN(c3cccc(C(F)(F)F)c3)CC2)CN(c2ccc(F)cc2)C12CCN(Cc1cc(C(F)(F)F)cc(C(F)(F)F)c1)CC2 | ≥ 10 µM
* O=C1N(C[C@@H](O)CNc2ccccc2)CN(c2ccc(F)cc2)C12CCN(Cc1c(Cl)cccc1C(F)(F)F)CC2 | > 10 µM
* COc1ccc(CCN(C)C[C@H](O)CN2CN(c3ccc(F)cc3)C3(CCN(Cc4c(Cl)cccc4C(F)(F)F)CC3)C2=O)cc1OC | > 10 µM
* CN(C)CCN(Cc1ccccc1)C[C@H](O)CN1CN(c2ccc(F)cc2)C2(CCN(Cc3cc(C(F)(F)F)cc(C(F)(F)F)c3)CC2)C1=O | ≥ 10 µM

Origin of measurements: patent US7582649B2
